kon for assorted binders
# Study System: T1, Homo sapiens factor Bb protein (human, UniProt P00751 260-764)
# T1 construct: Bought from CompTech (A155); also called complement factor Bb; human factor Bb
# T1 sequence (P00751 260-764 limits assumed): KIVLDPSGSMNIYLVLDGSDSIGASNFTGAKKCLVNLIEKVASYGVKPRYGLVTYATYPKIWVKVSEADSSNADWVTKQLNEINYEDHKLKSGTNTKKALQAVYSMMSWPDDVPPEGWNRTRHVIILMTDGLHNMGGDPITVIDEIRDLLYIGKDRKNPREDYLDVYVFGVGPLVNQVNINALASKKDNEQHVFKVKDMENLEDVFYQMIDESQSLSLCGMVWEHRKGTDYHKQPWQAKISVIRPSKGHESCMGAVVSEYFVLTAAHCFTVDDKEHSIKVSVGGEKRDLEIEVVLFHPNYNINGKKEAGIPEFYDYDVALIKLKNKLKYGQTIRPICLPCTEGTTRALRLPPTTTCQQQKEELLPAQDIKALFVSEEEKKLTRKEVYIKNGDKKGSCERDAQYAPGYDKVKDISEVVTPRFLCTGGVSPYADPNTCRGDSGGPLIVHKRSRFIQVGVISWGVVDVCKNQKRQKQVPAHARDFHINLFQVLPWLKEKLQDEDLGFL
# Assay Protocol: SPR single cycle kinetics, IgG on Protein A chip, factor Bb analyte
Metric Name: kon

>  <Binder>
VH2/Vκ5 (antibody, V domains shown) VH: EVQLVESGGGLVKPGGSLRLSCAASGFTFSNYAMSWVRQAPGKGLEWVATISNRGSYTYYPDSVKGRFTISRDNAKNSLYLQMNSLRAEDTALYYCARERPMDYWGQGTLVTVSS VL: DIQMTQSPSTLSASVGDRVTITCRASQDVGTAVAWYQQKPGQPPKLLIYWASTRHTGVPDRFSGSGSGTDFTLTISSLQAEDFATYYCHQHSSNPLTFGQGTKLEIK

>  <Metric Name>
kon

>  <Observed Value>
225000 M⁻¹ s⁻¹

$$$$
>  <Binder>
VH1/Vκ0 (control) (antibody, V domains shown) VH: EVQLVESGGGLVKPGGSLRLSCAASGFTFSNYAMSWVRQAPGKGLEWVATISNRGSYTYYPDSVKGRFTISRDNAKNSLYLQMSSLRSEDTALYYCARERPMDYWGQGTSVTVSS VL: DIVMTQSHKFMSTSVGDRVSITCKASQDVGTAVAWYQQKPGQSPKLLIYWASTRHTGVPDRFTGSGSGTDFTLTITNVQSEDLAVYFCHQHSSNPLTFGAGTKLELK

>  <Metric Name>
kon

>  <Observed Value>
376000 M⁻¹ s⁻¹

$$$$
